Test: Pharmacokinetics of CBP501, single agent study
Type: in vivo, human
Conditions: human, in vivo, 9.57 mg/m2, single agent, 9.57 mg/m^2, Day 1, mean, N 3
Counter-ions that a name gives are not always drawn. Square brackets hold non-standard residues; d marks the D form. Peptide text beside a SMILES is read from it. dPhe(F5) = N[C@H](Cc1c(F)c(F)c(F)c(F)c1F)C(=O)O; dBpa = N[C@H](Cc1ccc(C(=O)c2ccccc2)cc1)C(=O)O; dCha = N[C@H](CC1CCCCC1)C(=O)O
Parameter Measured: AUC(0-inf) (ng·h/mL)
One number for each entry, in ng·h/mL.

Respond only with AUC(0-inf) recorded for N=C(N)NCCC[C@@H](NC(=O)[C@@H](CCCNC(=N)N)NC(=O)[C@@H](CCC(N)=O)NC(=O)[C@@H](CCCNC(=N)N)NC(=O)[C@@H](CCCNC(=N)N)NC(=O)[C@@H](CCCNC(=N)N)NC(=O)[C@@H](CC1CCCCC1)NC(=O)[C@@H](Cc1c(F)c(F)c(F)c(F)c1F)NC(=O)[C@@H](CO)NC(=O)[C@@H](Cc1c[nH]c2ccccc12)NC(=O)[C@@H](CO)NC(=O)[C@H](N)Cc1ccc(C(=O)c2ccccc2)cc1)C(=O)O [CBP501, acetate salt] (H-[dBpa][dS][dW][dS][dPhe(F5)][dCha][dR][dR][dR][dQ][dR][dR]-OH)
6480
